Test system: SN12C
Assay: NCI tumour cell line growth inhibition, 48 h
Calls of active or inactive are those of the source. Rule as the data show it: active = GI50 up to about 1.1 µM and inactive = higher.
I'd be grateful if you could share measured GI50 for these entries.

Solved entries:
compound: COc1ccc(/C=C2\CCS(=O)(=O)c3ccccc3C2=O)cc1OC
GI50: 28.2 µM (inactive)
--
compound: Nc1nc(N)c2ncn(Cc3c(Cl)cccc3Cl)c2n1
GI50: > 100 µM (inactive)
--
compound: CCNC1=C(NC(=O)c2ccc(F)cc2)C(=O)c2ccccc2C1=O
GI50: 38.7 µM (inactive)
--
compound: CC1=C[C@H]2C[C@@]3(C)O[C@@H]([C@]4(C)CC[C@H]([C@@H](C)C(=O)O)OO4)CC3C(C)(C)[C@H]2CC1 (some centres not stated)
GI50: 1.39 µM (inactive)
--
compound: CC1=CCC2(C#N)CCC1C2=O (configuration not stated)
GI50: > 100 µM (inactive)
--
compound: Nc1ncnc2c1ccn2C/C=C\CO
GI50: > 100 µM (inactive)

Okay, now this compound:
Measured GI50, CSc1n/c(=N\c2ccccc2)sn1-c1ccccc1 : 15.6 µM (inactive)

====

System: CCRF-CEM
Test: NCI tumour cell line growth inhibition, 48 h
Calls of active or inactive are those of the source. Cut-off read from the data, not from the text of the source: active = GI50 up to about 1.1 µM and inactive = higher.
measured_attribute: GI50

molecule: CC1CCCc2c(C#N)c(N)nc(-c3ccc(Cl)cc3)c21 (stereo unspecified)
assayed_target: CCRF-CEM
result: 22.8 µM (inactive)

Report GI50 for every entry below.
1. O=C(OC1C2OC(=O)c3cc(O)c(O)c(O)c3Oc3cc4c(c(O)c3O)-c3c(cc(O)c(O)c3O)C(=O)OCC3OC(O)C(OC(=O)c5cc(O)c(O)c(O)c5Oc5cc6c(c(O)c5O)-c5c(cc(O)c(O)c5O)C(=O)OC1C(COC6=O)OC2O)C(OC(=O)c1cc(O)c(O)c(O)c1)C3OC4=O)c1cc(O)c(O)c(O)c1 (stereo unspecified)
2. Cc1ccc([N+](=O)[O-])cc1NC(=O)c1cccc([N+](=O)[O-])c1O
3. CC(=O)O[C@]12CCCCCCC1C1(O)C(O)CCC[C@H]12 (stereo partly specified)
4. CN(C)C(=O)Oc1ccc(-c2cn3cc(NC(=O)c4ccccc4)ccc3n2)cc1
5. COc1cc(-c2c3c(cc4c2OCO4)[C@@H](Nc2ccc(-c4ccc(-c5ccc(N[C@@H]6c7cc8c(cc7C(c7cc(OC)c(O)c(OC)c7)[C@H]7C(=O)OC[C@H]67)OCO8)cc5)cc4)cc2)[C@H]2COC(=O)[C@@H]2C3)cc(OC)c1O (stereo partly specified)

1: 3.61 µM (inactive); 2: 18.2 µM (inactive); 3: > 100 µM (inactive); 4: 99.5 µM (inactive); 5: 3.13 µM (inactive)

====

System: MDA-MB-435
Assay: NCI tumour cell line growth inhibition, 48 h
Activity calls are given as the source filed them. Cut-off read from the data, not from the text of the source: active = GI50 up to about 1.1 µM and inactive = higher.
measured_attribute: GI50

Solved entries:
molecule: C[C@]12CC[C@@H]3c4ccc(O)cc4CC[C@H]3[C@@H]1C/C(=C\c1ccncc1)[C@@H]2O
result: 2.92 µM (inactive)
//
molecule: COc1cc(C(=O)n2c3ccc(Br)cc3c3nc4ccccc4nc32)cc(OC)c1OC
result: > 100 µM (inactive)
//
molecule: Clc1ccc(OCc2nn3c(CCc4nnc5sc(COc6ccc(Cl)cc6)nn45)nnc3s2)cc1
result: 24.9 µM (inactive)
//
molecule: Cc1oc2c(c1C)S(=O)(=O)C(C#N)C(c1ccccc1)N2 (stereo not given)
result: 34.5 µM (inactive)

Report GI50 for every entry below.
1. [N-]=[N+]=CC(=O)OCC1NC(=O)C(COC(=O)C=[N+]=[N-])NC1=O (stereo not given)
2. CC(C)(C)OC(=O)N1C(=O)OC[C@@H]2C=C[C@@H]21
3. CN1c2ccccc2S(=O)(=O)n2c(COc3ccc(Cl)cc3)nnc21

1. > 100 µM (inactive)
2. > 100 µM (inactive)
3. > 100 µM (inactive)

Report GI50 for every entry below.
1. COc1ccc2c(c1)CN1C(=N2)CSC1c1cc([N+](=O)[O-])ccc1Cl (stereo not given)
2. COc1cc(C(C)O)c(S(=O)(=O)CC(C)O)nn1 (stereo not given)
3. N#CC1=C(Nc2ccccc2)SC=C(c2ccccc2)N=C1NCc1ccccc1

1: 19.4 µM (inactive); 2: > 100 µM (inactive); 3: > 100 µM (inactive)
